Biological target: recombinant human Meningioma Expressed Antigen 5 (MGEA5), also referred to as O-GlcNAcase (OGA) (Homo sapiens, UniProt O60502)
Construct: Full length OGA enzyme was purchased at OriGene (cat # TP322411); purchased OriGene TP322411
Sequence (O60502 1-916): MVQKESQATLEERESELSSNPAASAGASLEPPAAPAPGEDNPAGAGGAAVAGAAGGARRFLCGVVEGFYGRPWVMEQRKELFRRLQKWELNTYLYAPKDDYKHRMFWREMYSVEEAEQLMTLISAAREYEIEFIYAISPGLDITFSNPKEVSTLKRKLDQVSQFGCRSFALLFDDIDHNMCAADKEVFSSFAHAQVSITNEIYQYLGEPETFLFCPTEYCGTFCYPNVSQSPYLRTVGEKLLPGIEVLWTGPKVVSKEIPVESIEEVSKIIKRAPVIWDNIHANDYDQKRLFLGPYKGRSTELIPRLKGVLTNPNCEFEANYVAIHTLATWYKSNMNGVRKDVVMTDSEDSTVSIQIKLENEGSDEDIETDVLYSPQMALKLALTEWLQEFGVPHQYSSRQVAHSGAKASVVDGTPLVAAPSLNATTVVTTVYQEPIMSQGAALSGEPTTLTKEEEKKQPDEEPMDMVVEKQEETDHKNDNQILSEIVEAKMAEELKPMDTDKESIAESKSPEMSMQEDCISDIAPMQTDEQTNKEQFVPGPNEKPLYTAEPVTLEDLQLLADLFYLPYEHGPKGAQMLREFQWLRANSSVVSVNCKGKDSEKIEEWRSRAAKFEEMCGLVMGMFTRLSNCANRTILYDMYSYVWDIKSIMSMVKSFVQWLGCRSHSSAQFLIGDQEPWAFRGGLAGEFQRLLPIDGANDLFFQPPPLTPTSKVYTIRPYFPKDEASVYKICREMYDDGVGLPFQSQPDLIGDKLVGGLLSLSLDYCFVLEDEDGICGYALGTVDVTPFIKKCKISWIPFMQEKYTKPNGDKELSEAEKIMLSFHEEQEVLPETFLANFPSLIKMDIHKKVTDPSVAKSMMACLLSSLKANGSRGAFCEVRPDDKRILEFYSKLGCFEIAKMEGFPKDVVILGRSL
Test: OGA biochemical assay: inhibition of FM-GlcNAc hydrolysis, fluorescence; protocol A (10 nM OGA, 1 h) or protocol B (2 nM OGA, 6 h)
Details: Enzymatic protocol A (10 nM OGA, 1 h); read-out: Enzymatic hOGA; pIC50 (converted)
MEASUREMENT_KIND: IC50
Respond with a number, then the unit of measure.

The molecule identified as CC(=O)Nc1ncc(CN2CCCC(c3cc(C(F)F)nc4nccn34)C2)s1 (centres unmarked) registered its IC50 at 8.71 nM

The molecule identified as CC(=O)Nc1ncc(CN2CCCC(c3cc(C(F)F)nc4ncnn34)C2)s1 (racemic) registered its IC50 at 8.51 nM

The molecule identified as CC(=O)Nc1ncc(S(=O)(=O)N2CCOC(c3cc(C(F)F)nc4ncnn34)C2)s1 (centres unmarked) registered its IC50 at 6.46 nM

The molecule identified as CC(=O)Nc1ncc(CN2CCC3(CC3)C(c3cc(C(F)F)nc4ncnn34)C2)s1 (centres unmarked) registered its IC50 at 69.2 nM

The molecule identified as CC(=O)Nc1ncc(S(=O)(=O)N2CCCC(c3cc(C(F)F)nc4ncnn34)C2)s1 (racemic) registered its IC50 at 9.33 nM

The molecule identified as CC(=O)Nc1ncc(S(=O)(=O)N2CCC[C@@H](c3cc(C(F)F)n4ncnc4n3)C2)s1 registered its IC50 at 617 nM

The molecule identified as CC(=O)Nc1ncc(S(=O)(=O)N2CCOC(c3cc(C(F)(F)F)nc4ncnn34)C2)s1 (centres unmarked) registered its IC50 at 17 nM

The molecule identified as CC(=O)Nc1ncc(CN2CCOC(c3cc(C(F)F)nc4ncnn34)C2)s1 (centres unmarked) registered its IC50 at 1580 nM

The molecule identified as CC(=O)Nc1ncc(CN2CCCC(c3cc4cc[nH]c4nc3C)C2)s1 (racemic) registered its IC50 at 6.31 nM

The molecule identified as CC(=O)Nc1ncc(CN2CCC[C@@H](c3cc(C(F)F)n4ncnc4n3)C2)s1 registered its IC50 at 13.5 nM

The molecule identified as CC(=O)Nc1ncc(S(=O)(=O)N2CCO[C@@H](c3ccnc4ncnn34)C2)s1 registered its IC50 at 15.8 nM

The molecule identified as CC(=O)Nc1ncc(S(=O)(=O)N2CCCC(c3ccnc4nccn34)C2)s1 (racemic) registered its IC50 at 186 nM

The molecule identified as CC(=O)Nc1ncc(S(=O)(=O)N2CCC[C@@H](c3ccnc4ncnn34)C2)s1 registered its IC50 at 871 nM

The molecule identified as CC(=O)Nc1ncc(CN2CCOC(c3cc(C)nc4ncnn34)C2)s1 (centres unmarked) registered its IC50 at 1580 nM
